Measured values drawn from ChEMBL document CHEMBL1148353 for this set.

Target: Delta-type opioid receptor (Rattus norvegicus, UniProt P33533)
Sequence (P33533 whole entry): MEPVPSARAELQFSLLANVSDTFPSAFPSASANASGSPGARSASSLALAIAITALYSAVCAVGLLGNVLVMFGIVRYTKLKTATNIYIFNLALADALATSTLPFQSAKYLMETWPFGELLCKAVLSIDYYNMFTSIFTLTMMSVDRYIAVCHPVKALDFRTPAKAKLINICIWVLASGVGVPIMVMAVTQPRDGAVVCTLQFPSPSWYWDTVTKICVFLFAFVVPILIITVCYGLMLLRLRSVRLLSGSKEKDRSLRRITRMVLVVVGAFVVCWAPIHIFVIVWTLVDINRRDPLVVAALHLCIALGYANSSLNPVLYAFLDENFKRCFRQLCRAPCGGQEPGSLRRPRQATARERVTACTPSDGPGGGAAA
Assay: Binding affinity against rat brain opioid receptor delta 1 using [3H]DPDPE radioligand
Where a SMILES comes first, the peptide text is derived from it. The star is where a group is joined. NHPh = c1ccc(N*)cc1
Please respond with reported log10 Ki for every item in the list.
In plain terms, each number is the log10 of measured Ki in µM.

Some solved entries appear below for comparison.
compound: Cc1cc(O)cc(C)c1C[C@H](N)C(=O)N1CCC[C@H]1C(=O)N[C@@H](Cc1ccccc1)C(=O)Nc1cccc2cnccc12
test.result: -1.01
--
compound: N[C@@H](Cc1ccc(O)cc1)C(=O)N1CCC[C@H]1C(=O)N[C@@H](Cc1ccccc1)C(=O)NC12C[C@H]3C[C@@H](C1)C[C@@H](C2)C3
test.result: 0.80
--
compound: N[C@@H](Cc1ccc(O)cc1)C(=O)N1CCC[C@H]1C(=O)N[C@@H](Cc1ccccc1)C(=O)NC1C2C[C@H]3C[C@@H](C2)C[C@@H]1C3 (some centres not stated)
test.result: 0.75
--
compound: N[C@@H](Cc1ccc(O)cc1)C(=O)N1CCC[C@H]1C(=O)N[C@@H](Cc1ccccc1)C(=O)Nc1ccccc1 (H-Tyr-Pro-Phe-NHPh)
test.result: 1.37
--
compound: Cc1cc(O)cc(C)c1C[C@H](N)C(=O)N1CCC[C@H]1C(=O)N[C@@H](Cc1ccccc1)C(=O)Nc1ccc2ncccc2c1
test.result: -1.33
--
compound: Cc1cc(O)cc(C)c1C[C@H](N)C(=O)N1CCC[C@H]1C(=O)N[C@@H](Cc1ccccc1)C(=O)Nc1cnc2ccccc2c1
test.result: -0.72

Attention now shifts to the item below.
Lookup: # return log10 Ki of N[C@@H](Cc1ccc(O)cc1)C(=O)N1CCC[C@H]1C(=O)N[C@@H](Cc1ccccc1)C(=O)Nc1ccc2ncccc2c1 (system: Delta-type opioid receptor (Rattus norvegicus, UniProt P33533))
Found: 0.99
